Taken from patent US8791132B2.

Molecular target: rat adrenergic α1B receptor (Rattus norvegicus, UniProt P15823)
Construct: rat adrenergic α1B receptor obtained from Wistar Rat liver; from tissue; host or cells: Wistar rat liver
Sequence (P15823 whole entry): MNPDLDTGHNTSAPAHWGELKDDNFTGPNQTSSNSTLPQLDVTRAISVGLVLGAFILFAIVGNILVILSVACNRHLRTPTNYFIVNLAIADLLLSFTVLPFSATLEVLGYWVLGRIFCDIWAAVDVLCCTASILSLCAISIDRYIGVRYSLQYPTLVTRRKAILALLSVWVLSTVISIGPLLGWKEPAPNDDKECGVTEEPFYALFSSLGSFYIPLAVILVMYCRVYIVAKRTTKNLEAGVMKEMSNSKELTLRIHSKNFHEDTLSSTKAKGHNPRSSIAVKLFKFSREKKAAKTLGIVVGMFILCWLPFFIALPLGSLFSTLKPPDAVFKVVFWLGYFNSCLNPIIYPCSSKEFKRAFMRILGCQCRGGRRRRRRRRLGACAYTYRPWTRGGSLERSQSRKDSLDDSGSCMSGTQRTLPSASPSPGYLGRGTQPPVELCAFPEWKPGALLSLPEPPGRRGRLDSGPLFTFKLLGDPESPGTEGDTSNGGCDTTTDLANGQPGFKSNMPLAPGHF
Assay: Radioligand binding, adrenergic α1B ([3H]Prazosin)
Conditions: read-out: Percentage inhibition of ligand binding, Adrenergic α1B (0.1 μM), compound at 0.1 μM; [3H]Prazosin; repeat datapoints each shown
quantity kind: inhibition at 0.1 µM (%)
Answer with a number only, understood to be in %.

In the examples that follow, each entry is paired with its recorded inhibition at 0.1 µM.
Qu. Consider the molecule Cc1ccc(CCn2c3c(c4c(Cl)ccc(Br)c42)CN(C)CC3)cn1 and give its recorded inhibition at 0.1 µM.
Ans. -1

Qu. Report measured inhibition at 0.1 µM; entry is C/C(=C\n1c2c(c3cc(C)ccc31)CCN(C)C2C)c1ccccc1F (stereo not drawn)
Ans. 25

Qu. Specify measured inhibition at 0.1 µM for Cc1ccc2c(c1)c1c(n2CC(O)c2ncc[nH]2)CCN2CCCC12 (stereo not drawn) .
Ans. 34

Qu. For Cc1ccc(C(O)Cn2c3c(c4cc(C)ccc42)CN(C)CC3)cc1 (single isomer, unassigned) [183b] , write its inhibition at 0.1 µM.
Ans. 93

Qu. Recall and state the measured inhibition at 0.1 µM for Cc1ccc(CCn2c3c(c4c(Cl)ccc(Cl)c42)CCN(C)C3)cn1 .
Ans. 6

New cases:
Qu. Give the reported inhibition at 0.1 µM for this molecule. Cc1ccc2c(c1)c1c(n2CC(C)(F)c2ccncc2)CCN(C)C1 (stereo not drawn)
Ans. 40

Qu. Output measured inhibition at 0.1 µM for this item: Cc1ccc2c(c1)c1c(n2CC(O)c2ccc(C(N)=O)cc2)CCN(C)C1 (single isomer, unassigned) [139a]
Ans. 17

Qu. Please indicate inhibition at 0.1 µM recorded for Cc1ccc2c(c1)c1c(n2CC(c2ccncc2)N(C)C)CCN(C)C1 (stereo not drawn) [150b]
Ans. 7

Qu. Give the reported value of inhibition at 0.1 µM for this record: Cc1cnc2c(c1)c1c(n2CC(N)c2ccncc2)CCN(C)C1 (stereo not drawn)
Ans. 21

---

Item-by-item account of Percentage inhibition of ligand binding, Adrenergic α2B
Target: human recombinant adrenergic α2B receptor (Homo sapiens, UniProt P18089)
Construct: expressed in transfected cells; host or cells: CHO-K1
Sequence (P18089 1-450): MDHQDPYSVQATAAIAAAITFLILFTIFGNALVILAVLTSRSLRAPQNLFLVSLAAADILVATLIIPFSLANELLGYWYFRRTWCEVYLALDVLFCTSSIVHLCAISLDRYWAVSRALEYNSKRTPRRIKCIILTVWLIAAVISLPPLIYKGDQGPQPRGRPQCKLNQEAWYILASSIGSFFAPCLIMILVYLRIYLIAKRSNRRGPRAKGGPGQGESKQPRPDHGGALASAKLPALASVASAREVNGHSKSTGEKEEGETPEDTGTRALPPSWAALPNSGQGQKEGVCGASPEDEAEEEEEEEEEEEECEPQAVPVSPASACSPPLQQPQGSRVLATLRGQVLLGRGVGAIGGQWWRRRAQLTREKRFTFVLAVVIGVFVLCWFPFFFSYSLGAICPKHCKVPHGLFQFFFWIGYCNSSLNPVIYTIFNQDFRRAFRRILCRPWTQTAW
Assay: Radioligand binding, adrenergic α2B ([3H]Rauwolscine)
Details: compound at 0.03 μM; [3H]Rauwolscine; repeat assays, each datapoint shown; 0.03 µM
Method: To evaluate in radioligand binding assays the activity of compounds of the invention, human recombinant adrenergic α2B receptor expressed in Chinese hamster ovary (CHO) K1 cells (Uhlen, S. et al, Eur. J. Pharmacol. 343(1):93, 1998) in a modified Tris-HCl buffer (50 mM Tris-HCl, pH 7.4, 12.5 mM MgCl2, 1 mM EDTA, 0.2% BSA) was used. […] Receptor proteins were filtered and washed, the filters were then counted to determine [3H]Rauwolscine specifically bound. […]
# output: bare number, implied unit %

The following molecules have reported results that may help.
Qu. Return Percentage inhibition of ligand binding, Adrenergic α2B (reported value) for this molecule: Cc1ccc2c(c1)c1c(n2CC(O)c2ccncc2)CC2CCCN2C1 (single isomer, unassigned) [76c]
Ans. 35

Qu. Could you please provide reported Percentage inhibition of ligand binding, Adrenergic α2B for Cc1ccc2c(c1)c1c(n2CC(O)c2ccncc2)CCN(C)CC1 (single isomer, unassigned) [13b] ? Thanks!
Ans. 102

Qu. Write down Percentage inhibition of ligand binding, Adrenergic α2B measured for item Cc1ccc2c(c1)c1c(n2CC(O)c2cccnc2)CCN(CCO)C1 (single isomer, unassigned) [21b]
Ans. 1

Qu. Write down Percentage inhibition of ligand binding, Adrenergic α2B measured for item CN1CCc2c(n(CC(C)(O)c3cccnc3)c3ccc(Cl)cc23)C1 (single isomer, unassigned) [28b]
Ans. 37

Qu. Indicate the recorded Percentage inhibition of ligand binding, Adrenergic α2B value for this molecule: OC(Cn1c2c(c3cccnc31)CN1CCCC1C2)c1ccncc1 (single isomer, unassigned) [37d]
Ans. −3

Qu. Complete the entry with Percentage inhibition of ligand binding, Adrenergic α2B for CN1CCc2c(n(CC(O)c3ccncc3)c3ccc(Cl)cc23)CC1 (single isomer, unassigned) [15a]
Ans. 65

Next, consider the following molecule.
Qu. Tell me Percentage inhibition of ligand binding, Adrenergic α2B reported for Cc1ccc2c(c1)c1c(n2CC(O)c2ccncc2)CN(C)CC1 (stereo not shown) [8a]
Ans. 22

---

Target: human recombinant adrenergic α2A receptor (Homo sapiens, UniProt P08913)
Construct: expressed in transfected cells; host or cells: insect Sf9 cells
Sequence (P08913 whole entry): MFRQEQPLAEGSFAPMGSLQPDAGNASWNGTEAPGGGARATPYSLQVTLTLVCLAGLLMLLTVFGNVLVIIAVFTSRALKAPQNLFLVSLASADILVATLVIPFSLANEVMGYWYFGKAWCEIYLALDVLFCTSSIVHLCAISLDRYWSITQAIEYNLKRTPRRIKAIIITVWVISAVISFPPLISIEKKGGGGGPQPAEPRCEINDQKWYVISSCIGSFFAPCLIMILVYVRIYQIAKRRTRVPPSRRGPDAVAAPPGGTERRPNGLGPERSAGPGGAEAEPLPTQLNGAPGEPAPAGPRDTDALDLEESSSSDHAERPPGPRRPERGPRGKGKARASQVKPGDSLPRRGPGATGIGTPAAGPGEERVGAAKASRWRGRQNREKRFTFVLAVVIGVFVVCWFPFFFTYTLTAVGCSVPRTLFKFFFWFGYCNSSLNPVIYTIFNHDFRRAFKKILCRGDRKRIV
Assay: Radioligand binding, adrenergic α2A ([3H]MK-912)
Conditions: compound at 0.1 μM; [3H]MK-912; repeat datapoints each shown; 0.1 µM
quantity kind: Percentage inhibition of ligand binding, Adrenergic α2A (0.1 μM) (%)
Write the value in % as a bare number.

Qu. Report measured Percentage inhibition of ligand binding, Adrenergic α2A (0.1 μM); entry is CC1Cc2c(c3cc(Cl)ccc3n2CC(C)(O)c2cccnc2)CN1C (single isomer, unassigned) [II-147d]
Ans. 4

Qu. Tell me Percentage inhibition of ligand binding, Adrenergic α2A (0.1 μM) reported for Cc1cnc2c(c1)c1c(n2CC(O)c2ccc(C#N)nc2)CCN(C)C1 (single isomer, unassigned) [II-114b]
Ans. −5

Qu. State its Percentage inhibition of ligand binding, Adrenergic α2A (0.1 μM) for this compound: Cc1ccc2c(c1)c1c(n2CC(CC(O)C(C)(C)C)c2ccncc2)CCN(C)C1 (single isomer, unassigned) [II-227a]
Ans. 15

Okay, next one:
Qu. Report Percentage inhibition of ligand binding, Adrenergic α2A (0.1 μM) for Cc1ccc2c(c1)c1c(n2CC(OC(=O)CCC(=O)O)c2ccncc2)CCN2CCCC12 (single isomer, unassigned) [V-18b]
Ans. 57

---

Target: human recombinant adrenergic α2A receptor (Homo sapiens, UniProt P08913)
Construct: expressed in transfected cells; host or cells: insect Sf9 cells
Assay: Radioligand binding, adrenergic α2A ([3H]MK-912)
Conditions: compound at 0.1 μM; [3H]MK-912; repeat datapoints each shown; 0.1 µM
quantity kind: Percentage inhibition of ligand binding, Adrenergic α2A (0.1 μM) (%)
Return type: number; implicit unit %.

The cases that follow already have their Percentage inhibition of ligand binding, Adrenergic α2A (0.1 μM) on record.
Qu. Dear colleague, please send me the reported Percentage inhibition of ligand binding, Adrenergic α2A (0.1 μM) for Cc1cnc2c(c1)c1c(n2CC(N)c2ccc(C#N)cc2)CCNC1 (single isomer, unassigned) [160a] when you can.
Ans. −12

Qu. Give Percentage inhibition of ligand binding, Adrenergic α2A (0.1 μM) for the following compound: Cc1ccc2c(c1)c1c(n2CC(C)(O)c2ccc(F)cc2)CCN2CCCC12 (single isomer, unassigned) [II-121a]
Ans. 92

Qu. Dear colleague, please send me the reported Percentage inhibition of ligand binding, Adrenergic α2A (0.1 μM) for C/C(=C\n1c2c(c3cc(C)ccc31)CN(C)CC2)c1ccncn1 when you can.
Ans. 15

Qu. Return value of Percentage inhibition of ligand binding, Adrenergic α2A (0.1 μM) for input Cc1ccc2c(c1)c1c(n2CC(C)(O)c2cnccn2)CCN2CCCC12 (single isomer, unassigned) [176a] , no commentary.
Ans. 32

Qu. Answer with the recorded Percentage inhibition of ligand binding, Adrenergic α2A (0.1 μM) for the compound listed here: Cc1ccc(C(O)Cn2c3c(c4cc(C)ccc42)CN(C)CC3)cc1 (single isomer, unassigned) [183b]
Ans. 97

Qu. Answer with the recorded Percentage inhibition of ligand binding, Adrenergic α2A (0.1 μM) for the compound listed here: Cc1ccc2c(c1)c1c(n2CC(O)c2ccc(F)cc2F)CCN(C)CC1 (single isomer, unassigned) [172b]
Ans. 46

***
Qu. Answer with reported Percentage inhibition of ligand binding, Adrenergic α2A (0.1 μM) of Cc1cc2c3c(n(CC(C)(O)c4cccnc4)c2cc1Cl)CCN(C)C3 (single isomer, unassigned) [II-123a]
Ans. 16

Qu. Please report the measured Percentage inhibition of ligand binding, Adrenergic α2A (0.1 μM) for Cc1ccc2c(c1)c1c(n2CC(C)(O)c2cccnc2)C(O)CN(C)C1 (single isomer, unassigned) [II-151b]
Ans. 11

Qu. Hello, please tell me recorded Percentage inhibition of ligand binding, Adrenergic α2A (0.1 μM) for this one: Cc1cnc2c(c1)c1c(n2CC(O)c2ccc(F)cc2)CCN(C)C1 (single isomer, unassigned) [136b]
Ans. 21
